# subject of test: Carbonic anhydrase 9 (Homo sapiens, UniProt Q16790)
pKi: −log10 of the molar value.
property label: pKi

{"columns": ["given smiles", "subject of test", "quantitative result"],
 "data": [
  ["NS(=O)(=O)c1ccc(S(=O)(=O)Nc2cccc3[nH]cc(Cl)c23)cc1", "Carbonic anhydrase 9 (Homo sapiens, UniProt Q16790)", 7.62]
]}

* * *

Sequence of the target: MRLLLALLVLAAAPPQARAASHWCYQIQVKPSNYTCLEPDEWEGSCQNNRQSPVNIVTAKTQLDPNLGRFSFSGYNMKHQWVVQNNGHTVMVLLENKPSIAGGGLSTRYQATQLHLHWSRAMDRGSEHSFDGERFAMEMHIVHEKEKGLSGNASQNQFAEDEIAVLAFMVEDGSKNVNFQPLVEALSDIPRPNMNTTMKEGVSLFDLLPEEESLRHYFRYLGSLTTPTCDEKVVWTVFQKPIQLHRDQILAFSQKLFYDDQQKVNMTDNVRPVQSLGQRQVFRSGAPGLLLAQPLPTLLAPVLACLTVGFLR
pKi: −log10 of the molar value.
property label: pKi

{"columns": ["given smiles", "quantitative result"],
 "data": [
  ["NS(=O)(=O)c1ccc(S(=O)(=O)Nc2cccc3[nH]cc(Cl)c23)cc1", 7.19]
]}
